Value source: the supplement of paper PMC12042874

For each of the substances below, state its amyloid nucleation score.
assay: amyloid nucleation score (Sup35N fusion, yeast selection) (log enrichment); library NNK2; higher = more nucleation; inactive = no reads after selection;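 note: zero at mode of non-aggregating sequences after 7 days selection at 30°C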
Just the number, please, no unit after it.

**Query** Could you tell me which amyloid nucleation score is on file for WKTKISSSSCRSGNRSEPNA ?
**Result** 0.281

**Query** Form field: reported amyloid nucleation score of LLMVRVGRSQVRSNKNRH
**Result** 5.98

**Query** // lookup amyloid nucleation score for FIMSSVCMIRCNITCSHQPS
**Result** 8.21

**Query** Could you share which amyloid nucleation score value was measured for VDSVTGVMTFSTRSRSSDGD ?
**Result** 0.844

**Query** Would you mind telling me what amyloid nucleation score value was observed for EFKHSLIVASARRRNDFGYR ?
**Result** 0.224

**Query** Any idea what amyloid nucleation score was measured for SWNKGIHGGSTANCWFIVIK ?
**Result** 0.029

**Query** Look up amyloid nucleation score: RCHRNFVSWVEDLGRRSIGV
**Result** 4.53

**Query** So what does the record say about amyloid nucleation score for YYYVTCSILPLFYFEKGLAL ?
**Result** 5.71

**Query** Which measured amyloid nucleation score value corresponds to LCSSVLGGNRETAECFRFDQ ?
**Result** -0.67

**Query** Fill in: amyloid nucleation score of VLSMDLQVIRSWKICSVSRK is ___
**Result** 0.799

**Query** Entry CLFYRCCMHDPRSLLEKGRP has what amyloid nucleation score?
**Result** 5.83

**Query** # input substance: QLYYMKF ; wanted: its amyloid nucleation score
**Result** 5.68

**Query** What amyloid nucleation score value was documented for this substance, VYGSCSVMLGNWCSSVFKVL ?
**Result** 0.174

**Query** Would you kindly share the measured amyloid nucleation score for TWNGVWLGDFACFSWYMGPL ?
**Result** 0.094
